meta.source: patent US20230192839A1

Measured koff, listed per entry for reference.
- measurement-target: T1, human CD33 antigen (human, UniProt P20138 18-259, limits assumed)
- T1 construct: whole entry named; also called Siglec-3
- T1 sequence (P20138 18-259 limits assumed): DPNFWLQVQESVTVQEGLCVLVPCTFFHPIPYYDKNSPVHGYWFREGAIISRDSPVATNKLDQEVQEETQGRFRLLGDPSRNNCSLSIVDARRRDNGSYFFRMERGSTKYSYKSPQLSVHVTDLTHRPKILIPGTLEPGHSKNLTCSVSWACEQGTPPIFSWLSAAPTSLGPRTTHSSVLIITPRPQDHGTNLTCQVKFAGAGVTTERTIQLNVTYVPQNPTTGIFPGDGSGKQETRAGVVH
- protocol: SPR (Biacore T200), 37 C, scFv-Fc, 0 uM MTX
Reply numerically in s⁻¹, unit not repeated.

Input line: In one line, give reported koff of the entry P08_C08 scFv-Fc fusion (scFv, V domains shown, Tested as scFv-Fc fusion) VH: QVQLVESGGGLVQAGGSLRLSCAASRRSSRSWAMHWVRQAPGKGLEWVAVISYDGRLKYYADSVKGRFTISRDNAEYLVYLQMNSLRAEDTAVYYCAAEGSGSTDGSGAIDVWGQGTLVTVSS VL: DIQMTQSPSSLSASVGDRVTITCRASQSIGSYLNWYQQKPGKAPKLLIYAASSLQSGVPSRFSGSGSGTDFTLTISSLQPEDFATYYCQQSYSSGSFGQGTKVEIK .
Output line: 0.0045

Further cases:
Input line: In one line, give reported koff of the entry P02_C02 scFv-Fc fusion (scFv, V domains shown, Tested as scFv-Fc fusion) VH: QVQLVESGGGLVQAGGSLRLSCAASRRSSRSWAMHWVRQAPGKGLEWVAVISYDGRLKYYADSVKGRFTISRDNAEYLVYLQMNSLRAEDTAVYYCAAEGGMGLDPWGQGTLVTVSS VL: DIQMTQSPSSLSASVGDRVTITCRASQTISSYLNWYQQKPGKAPKLLIYAASNLHSGVPSRFSGSGSGTDFTLTISSLQPEDFATYYCQQSYSSGTFGQGTKVEIK .
Output line: 0.02

Input line: In one line, give reported koff of the entry P01_B02 scFv-Fc fusion (scFv, V domains shown, Tested as scFv-Fc fusion) VH: QVQLVESGGGLVQAGGSLRLSCAASRRSSRSWAMHWVRQAPGKGLEWVAVISYDGRLKYYADSVKGRFTISRDNAEYLVYLQMNSLRAEDTAVYYCAAADWYSGGGDALDIWGQGTLVTVSS VL: DIQMTQSPSSLSASVGDRVTITCRASQTIYNYLNWYQQKPGKAPKLLIYGASNLQSGVPSRFSGSGSGTDFTLTISSLQPEDFATYYCQQTYSSPTFGQGTKVEIK .
Output line: 0.0026

Input line: In one line, give reported koff of the entry P02_A10 scFv-Fc fusion (scFv, V domains shown, Tested as scFv-Fc fusion) VH: QVQLVESGGGLVQAGGSLRLSCAASRRSSRSWAMHWVRQAPGKGLEWVAVISYDGRLKYYADSVKGRFTISRDNAEYLVYLQMNSLRAEDTAVYYCAAESEWDTGGFDVWGQGTLVTVSS VL: DIQMTQSPSSLSASVGDRVTITCRASQSIGSYLNWYQQKPGKAPKLLIYSSSNLQSGVPSRFSGSGSGTDFTLTISSLQPEDFATYYCQQSYTSGTFGQGTKVEIK .
Output line: 0.044

Input line: In one line, give reported koff of the entry P04_C05 scFv-Fc fusion (scFv, V domains shown, Tested as scFv-Fc fusion) VH: QVQLVESGGGLVQAGGSLRLSCAASRRSSRSWAMHWVRQAPGKGLEWVAVISYDGRLKYYADSVKGRFTISRDNAEYLVYLQMNSLRAEDTAVYYCAAGLPWTDYWGQGTLVTVSS VL: QSVLTQPPSASGTPGQRVTISCSGSNSNIGSNYVSWYQQLPGTAPKLLIYSNNQRPSGVPDRFSGSKSGTSASLAISGLRSEDEADYYCAAWDDRLSVVFGTGTKLTVL .
Output line: 0.0021
